Each recorded value in this set is attributed to ChEMBL document CHEMBL2346546.

Each record here notes measured pKd.
Assay Target: Heparanase (Homo sapiens, UniProt Q9Y251)
Sequence (Q9Y251 36-109 limits assumed): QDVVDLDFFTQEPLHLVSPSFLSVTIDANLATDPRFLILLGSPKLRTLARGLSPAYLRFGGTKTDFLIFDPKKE
Sequence (Q9Y251 158-543 limits assumed): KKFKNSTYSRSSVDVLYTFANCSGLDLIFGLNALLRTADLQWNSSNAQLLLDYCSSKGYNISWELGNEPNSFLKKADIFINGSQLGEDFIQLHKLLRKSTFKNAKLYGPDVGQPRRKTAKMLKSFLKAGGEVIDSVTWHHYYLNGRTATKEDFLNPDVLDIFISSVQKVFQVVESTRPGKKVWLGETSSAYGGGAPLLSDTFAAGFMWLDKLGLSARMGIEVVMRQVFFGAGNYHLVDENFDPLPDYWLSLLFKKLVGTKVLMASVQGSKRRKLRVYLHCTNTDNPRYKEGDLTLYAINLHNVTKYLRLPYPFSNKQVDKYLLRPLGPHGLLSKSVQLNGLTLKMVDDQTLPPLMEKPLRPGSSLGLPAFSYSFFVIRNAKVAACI
Experiment: Binding affinity to recombinant heparanase catalytic stie (unknown origin) expressed in Escherichia coli BL21 (DE3) by surface plasmon resonance assay
pKd: −log10 of the molar value.
Property Name: pKd

>  <Compound>
Clc1ccc2c(Nc3ccc(-c4ccco4)c(CN4CCCC4)c3)ccnc2c1

>  <Readout Qualifier>
<

>  <Value Observed>
3.00

$$$$
>  <Compound>
CN1C[C@H](CNC(=O)OCc2ccccc2)C[C@@H]2c3cccc4c3c(cn4C)C[C@H]21

>  <Readout Qualifier>
<

>  <Value Observed>
3.00

$$$$
>  <Compound>
CCN(CC)Cc1cc(Nc2ccnc3cc(Cl)ccc23)ccc1N1CCOCC1

>  <Readout Qualifier>
=

>  <Value Observed>
3.62

$$$$
>  <Compound>
CC(CCc1ccccc1)NCC(O)c1ccc(O)c(C(N)=O)c1 (stereo not given)

>  <Readout Qualifier>
=

>  <Value Observed>
3.00

$$$$
>  <Compound>
CN(C)CCNCc1cc(NC(=O)CN2CCCCC2)cc(Nc2ccnc3cc(Cl)ccc23)c1

>  <Readout Qualifier>
=

>  <Value Observed>
3.19

$$$$
